# Subject of test: human P2X7 receptor (Homo sapiens, UniProt Q99572, R270H/Y155H)
# Experimental details: Evaluation of human P2X7 receptor inhibitory activity (Yo-Pro uptake, BzATP stimulation, FLIPR TETRA)
# Assay type: cell-based
# Condition details: 1321N1 cells stably expressing human P2X7 receptor; BzATP stimulation, Yo-Pro uptake; read-out: IC50 (antagonistic activity for the human P2X7 receptor), class symbol
# Experimental: Stably expressing cell line (1321N1 cell transfected with the human P2X7 receptor gene (GenBank accession number NM_002562.5 including T606C and G952A SNP)) was used. […] Measurement of fluorescence intensity by FLIPR TETRA was started. […] Changing values of fluorescence intensity by the compound of the present invention were calculated by difference between maximum and minimum fluorescence intensity for 20 minutes. Inhibition ratios (%) were calculated from the following equation: […]
Readout name: IC50

Compound	Result value
COc1cn(Cc2ccccc2)c(Nc2cc(Cl)c(Cl)cc2C)nc1=O [Compound I-0476]	< 10 nM
COc1cn(Cc2ccccc2OC(F)F)c(Nc2cccc(Cl)c2C)nc1=O [Compound I-0457]	< 10 nM
COc1cc(C)cc(Nc2nc(=O)c(OC)cn2Cc2ccc(F)c(F)c2)c1C	< 10 nM
COc1ccc(Nc2nc(=O)c(OC)cn2Cc2ccc(F)c(Cl)c2)c(C)c1C	< 10 nM
COc1cc(C)c(Nc2nc(=O)c(Cl)cn2Cc2ccc(F)cc2)cc1OC	< 10 nM
COc1cn(Cc2cc(F)cc(F)c2)c(Nc2cc3sc(C)nc3cc2C)nc1=O	10 to 100 nM
COc1cn(Cc2ccc(F)c(F)c2)c(Nc2cc(C)c(C)cc2C)nc1=O	< 10 nM
COc1cn(Cc2ccccc2)c(Nc2cccc(F)c2C)nc1=O	100 to 500 nM
COc1cn(Cc2cc(F)cc(F)c2)c(Nc2cc(OC(C)C)ccc2C)nc1=O	10 to 100 nM
COc1c(C)ccc(Nc2nc(=O)c(OC)cn2Cc2ccccc2)c1C	< 10 nM
COc1cn(Cc2cc(F)cc(F)c2)c(Nc2cc(-c3ncco3)ccc2C)nc1=O	10 to 100 nM
CCc1cc(OC)c(OC)cc1Nc1nc(=O)c(OC)cn1Cc1ccc(F)c(Cl)c1	< 10 nM
CCc1ccccc1Nc1nc(=O)c(F)cn1Cc1ccc(F)cc1	10 to 100 nM
Cc1cc(C)c(Nc2nc(=O)c(Cl)cn2Cc2ccccc2)cc1C	< 10 nM
COc1cn(Cc2cc(F)cc(Cl)c2)c(Nc2cc(CO)c(C)cc2C)nc1=O	< 10 nM
COc1cn(Cc2cc(F)cc(Cl)c2)c(Nc2cc(C)ccc2C)nc1=O	10 to 100 nM
COc1cn(Cc2cccc(C#N)c2)c(Nc2cccc(Cl)c2C)nc1=O	500 to 1000 nM
